# Test system: DU-145
# TEST_PROTOCOL: NCI tumour cell line growth inhibition, 48 h
Calls of active or inactive are those of the source. Cut-off read from the data, not from the text of the source: active = GI50 up to about 1.1 µM and inactive = higher.
Outcome codes: active, inactive

{"COMPOUND": "C=C([C@@]1(O)C[C@H]2[C@H](CCC2(OC)OC)[C@@H]2c3ccccc3O[C@@H]21)[Si](C)(C)C", "ANSWER_LABEL": "inactive"}
{"COMPOUND": "[N-]=[N+]=NC(c1cn(C2CC(O)C(CO)O2)c(=O)[nH]c1=O)C(Cl)I (stereo not given)", "ANSWER_LABEL": "inactive"}
{"COMPOUND": "COC(=O)c1cc(=O)n(-c2ccc3nn(C)nc3c2)cc1C(=O)OC", "ANSWER_LABEL": "inactive"}
{"COMPOUND": "O=S(=O)(CC(O)C(Cl)(Cl)Cl)NNc1ccccc1 (stereo not given)", "ANSWER_LABEL": "inactive"}
{"COMPOUND": "CCC1=C(CC2NCCc3ccccc32)CC2c3cc(OC)c(OC)cc3CCN2C1 (stereo not given)", "ANSWER_LABEL": "active"}
{"COMPOUND": "O=c1oc2c([N+](=O)[O-])cc([N+](=O)[O-])cc2c2ccccc12", "ANSWER_LABEL": "inactive"}
{"COMPOUND": "N#C/C(N)=C(C#N)/N=C/Nc1ccccc1N", "ANSWER_LABEL": "inactive"}
{"COMPOUND": "COc1ccc2oc3c(ccc[n+]3C)c(=O)c2c1", "ANSWER_LABEL": "inactive"}
{"COMPOUND": "CCOC(=O)c1cc(C2(O)CCN(CC(C)CC)C2=O)c(-c2cc(C)no2)[nH]1 (stereo not given)", "ANSWER_LABEL": "inactive"}
{"COMPOUND": "CCC1(CC)N=C(C(F)(F)F)c2cc(C(=O)C(F)(F)F)c3ccccc3c2N1", "ANSWER_LABEL": "inactive"}
{"COMPOUND": "COC(=O)C(CCc1ccccc1I)C1=CCC2(CC1)OCCO2 (stereo not given)", "ANSWER_LABEL": "inactive"}
{"COMPOUND": "C1CNCCN2CCCNCCN(C1)CC2", "ANSWER_LABEL": "inactive"}
{"COMPOUND": "NC1CCC(N(CC(=O)O)CC(=O)O)C(N(CC(=O)O)CC(=O)O)C1 (stereo not given)", "ANSWER_LABEL": "inactive"}
{"COMPOUND": "O=C(NNC(=S)Nc1ccccc1)c1ccccc1Nc1ccccc1C(=O)NNC(=S)Nc1ccccc1", "ANSWER_LABEL": "inactive"}
{"COMPOUND": "CC(O)C1CC1(CO)CNc1cc(Cl)nc(N)n1 (stereo not given)", "ANSWER_LABEL": "inactive"}
{"COMPOUND": "COc1cccc2c1-c1nc(N)c3c(OC)cccc3c1C2=O", "ANSWER_LABEL": "inactive"}
{"COMPOUND": "CCN1CCN(c2nc3ccccc3c3c2CCOc2ccccc2-3)CC1", "ANSWER_LABEL": "inactive"}
{"COMPOUND": "CC(C)NC(NC(C)C)=C(S(=O)(=O)C(F)(F)C(F)(F)C(F)(F)C(F)(F)F)S(=O)(=O)C(F)(F)C(F)(F)C(F)(F)C(F)(F)F", "ANSWER_LABEL": "inactive"}
{"COMPOUND": "CS(=O)(=O)c1ccc2nc(-c3ccc(O)cc3)sc2c1", "ANSWER_LABEL": "inactive"}
{"COMPOUND": "COc1ccc(C(=O)O[C@H]2CC[C@@]3(C)[C@@H]4CC[C@H]5[C@]6(O)C[C@H](O)[C@@]7(O)[C@@H](CN8C[C@@H](C)CC[C@H]8[C@@]7(C)O)[C@]6(O)C[C@@]53OC24O)cc1OC", "ANSWER_LABEL": "inactive"}
